// reported MCH for each item listed
Organism: Rattus norvegicus
Method Notes: Open TG-GATES - Regimen: Daily Repeat
Assay type: toxicity, organism-based, Sprague-Dawley
Parameters: regimen Daily Repeat, gender Male, age 6 weeks
Condition Set: in vivo, po, 0 mg/kg, […], tissue Blood, route gavage, dose level Control, time 14 day

>  <Molecule>
CC1=C(/C=C/C(C)=C/C=C/C(C)=C/CO)C(C)(C)CCC1

>  <Unit Of Measurement>
pg

>  <MCH>
20.9

$$$$
>  <Molecule>
CN1C(=O)CN=C(c2ccccc2)c2cc(Cl)ccc21

>  <Unit Of Measurement>
pg

>  <MCH>
20.9

$$$$
>  <Molecule>
NNC(=O)c1ccncc1

>  <Unit Of Measurement>
pg

>  <MCH>
20.3

$$$$
>  <Molecule>
CCOC(=O)CCC(=O)O[C@H]1[C@H](O[C@@H]2[C@@H](C)[C@H](O[C@H]3C[C@@](C)(OC)[C@@H](O)[C@H](C)O3)[C@@H](C)C(=O)O[C@H](CC)[C@@](C)(O)[C@H](O)[C@@H](C)C(=O)[C@H](C)C[C@@]2(C)O)O[C@H](C)C[C@@H]1N(C)C [ERYTHROMYCIN ETHYLSUCCINATE]

>  <Unit Of Measurement>
pg

>  <MCH>
21.2

$$$$
>  <Molecule>
NC(N)=Nc1nc(CSCCC(N)=NS(N)(=O)=O)cs1

>  <Unit Of Measurement>
pg

>  <MCH>
20.8

$$$$
>  <Molecule>
COC1=CC(=O)C[C@@H](C)[C@]12Oc1c(Cl)c(OC)cc(OC)c1C2=O

>  <Unit Of Measurement>
pg

>  <MCH>
20.8

$$$$
>  <Molecule>
O=C(CCCN1CCC(O)(c2ccc(Cl)cc2)CC1)c1ccc(F)cc1

>  <Unit Of Measurement>
pg

>  <MCH>
20.4

$$$$
>  <Molecule>
CN(C)CCN(Cc1cccs1)c1ccccn1

>  <Unit Of Measurement>
pg

>  <MCH>
20.3

$$$$
>  <Molecule>
CCOc1ccc(NC(=O)CC(C)O)cc1 (stereo unspecified)

>  <Unit Of Measurement>
pg

>  <MCH>
20.2

$$$$
>  <Molecule>
CCCNC(=O)NS(=O)(=O)c1ccc(Cl)cc1 [CHLORPROPAMIDE]

>  <Unit Of Measurement>
pg

>  <MCH>
20.6

$$$$
>  <Molecule>
COc1ccc2[nH]c([S+]([O-])Cc3ncc(C)c(OC)c3C)nc2c1 (stereo unspecified)

>  <Unit Of Measurement>
pg

>  <MCH>
20.8

$$$$
